IC50 (ug/ml), pseudovirus neutralization, TZM-bl assay overview
Biological target: ADA Env on pseudovirus (HIV-1 ADA)
Experiment: cell-based or functional assay
measuredAttribute: IC50 (ug/ml), pseudovirus neutralization, TZM-bl assay (µg/mL)

binder: 1503_H05 (PG16) (TCN-119) (antibody, V domains shown) VH: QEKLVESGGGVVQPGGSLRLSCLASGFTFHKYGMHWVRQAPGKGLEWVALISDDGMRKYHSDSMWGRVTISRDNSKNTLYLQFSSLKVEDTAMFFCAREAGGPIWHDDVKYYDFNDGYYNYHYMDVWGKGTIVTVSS VL: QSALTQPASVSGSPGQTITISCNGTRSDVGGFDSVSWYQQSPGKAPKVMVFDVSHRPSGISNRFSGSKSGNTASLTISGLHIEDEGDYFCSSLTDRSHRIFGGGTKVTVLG
observed: 0.003

binder: 1489_I13 (PG16) (TCN-120) (antibody, V domains shown) VH: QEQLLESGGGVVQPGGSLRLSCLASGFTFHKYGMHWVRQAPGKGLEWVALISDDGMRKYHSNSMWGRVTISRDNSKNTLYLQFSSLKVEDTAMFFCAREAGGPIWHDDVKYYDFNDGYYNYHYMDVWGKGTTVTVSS VL: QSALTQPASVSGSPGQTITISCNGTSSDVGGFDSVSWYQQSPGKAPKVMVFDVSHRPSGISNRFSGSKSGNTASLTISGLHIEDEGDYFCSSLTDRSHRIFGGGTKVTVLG
observed: 0.008

binder: 1456_A12 (PG16) (TCN-117) (antibody, V domains shown) VH: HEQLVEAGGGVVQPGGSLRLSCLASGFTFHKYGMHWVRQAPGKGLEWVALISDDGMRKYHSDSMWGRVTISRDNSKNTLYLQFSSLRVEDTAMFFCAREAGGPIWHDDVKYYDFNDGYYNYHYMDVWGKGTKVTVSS VL: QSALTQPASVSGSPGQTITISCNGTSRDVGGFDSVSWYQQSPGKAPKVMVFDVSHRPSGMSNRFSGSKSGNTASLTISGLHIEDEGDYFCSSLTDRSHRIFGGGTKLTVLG
observed: 0.005

binder: 1469_M23 (PG16) (TCN-118) (antibody, V domains shown) VH: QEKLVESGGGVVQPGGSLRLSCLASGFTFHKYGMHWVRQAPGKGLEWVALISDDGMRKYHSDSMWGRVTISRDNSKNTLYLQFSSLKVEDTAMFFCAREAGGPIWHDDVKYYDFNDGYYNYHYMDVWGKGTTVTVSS VL: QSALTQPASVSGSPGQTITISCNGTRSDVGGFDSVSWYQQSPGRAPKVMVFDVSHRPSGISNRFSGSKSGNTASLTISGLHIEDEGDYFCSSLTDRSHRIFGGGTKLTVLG
observed: 0.005
